FYI, the data here is from paper PMC7588429.

- TEST TARGET: FNO from M. smithii (Methanobrevibacter smithii)
- MEASUREMENT NOTES: SPR optical biosensor binding to immobilized FNO
- Protocol: FNO was covalently immobilized on a carboxylate surface according to the protocol described in the Materials and Methods section. The change in the signal related to immobilization of the enzyme (ΔR ≅ 1,000 arcsec) corresponded to the achievement of a partial Langmuir monolayer for a protein of 120 kDa (2 ng/mm^2). […]
OUTCOME MEASURE: Kd (nM)
Numbers only, in nM.

What Kd value was documented for this compound, O=C(O)[C@H]1O[C@@H](Oc2cc3oc(-c4ccccc4)cc(=O)c3c(O)c2O)[C@H](O)[C@@H](O)[C@@H]1O ?
65

---

- TEST TARGET: FNO from M. smithii (Methanobrevibacter smithii, UniProt A5UJ76)
- Sequence (A5UJ76 entry or part of it): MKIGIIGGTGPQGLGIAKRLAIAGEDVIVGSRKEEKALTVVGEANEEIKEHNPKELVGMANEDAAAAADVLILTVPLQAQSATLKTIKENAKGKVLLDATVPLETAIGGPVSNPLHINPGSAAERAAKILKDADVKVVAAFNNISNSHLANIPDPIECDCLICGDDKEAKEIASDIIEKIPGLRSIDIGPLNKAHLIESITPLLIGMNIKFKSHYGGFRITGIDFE
- MEASUREMENT NOTES: SPR optical biosensor binding to immobilized FNO
- EXPERIMENTAL CONTEXT: PBS pH 7.4; read-out: kass
Please provide measured log10 of kon for the entries that follow.
Heads up, the numbers here are log10 of kon in M⁻¹ s⁻¹ units.

Example entries begin here.
[[record]]
molecule = "O=c1c2cc(O)c(O)cc2oc2cc(O)c([C@@H]3O[C@H](CO)[C@@H](O)[C@H](O)[C@H]3O)c(O)c12"
outcome_measure = "log10 of kon"
assay_value = 3.68

[[record]]
molecule = "COc1ccc(-c2coc3cc(O[C@@H]4O[C@H](CO)[C@@H](O)[C@H](O)[C@H]4O)ccc3c2=O)cc1"
outcome_measure = "log10 of kon"
assay_value = 4.47

[[record]]
molecule = "O=C(O)[C@H]1O[C@@H](Oc2cc3oc(-c4ccccc4)cc(=O)c3c(O)c2O)[C@H](O)[C@@H](O)[C@@H]1O"
outcome_measure = "log10 of kon"
assay_value = 3.59

[[record]]
molecule = "CC(=O)OC[C@H]1O[C@@H](OC(C)=O)[C@H](OC(C)=O)[C@@H](OC(C)=O)[C@@H]1OC(C)=O [β-D-glucose pentaacetate]"
outcome_measure = "log10 of kon"
assay_value = 3.43


Requested read-out: log10 of kon. Entry: Cc1cc(O)c2c(c1)C(=O)c1cc(O[C@@H]3O[C@@H](C)[C@H](O)[C@@H](O)[C@H]3O)cc(O)c1C2=O
4.55

---

I'd appreciate it if you could supply Kd values for the items below.
- TEST TARGET: FNO from M. smithii (Methanobrevibacter smithii, UniProt A5UJ76)
- MEASUREMENT NOTES: SPR optical biosensor binding to immobilized FNO
- EXPERIMENTAL CONTEXT: experimental equilibrium constant; read-out: KD,E
Give bare numbers, in nM.

[[record]]
molecule = "O=C(C=Cc1ccc(O)c(O)c1)OC1CC(O)(C(=O)O)CC(O)C1O (stereo not shown)"
test_target = "FNO from M. smithii (Methanobrevibacter smithii, UniProt A5UJ76)"
unit_tag = "nM"
assay_value = 230

[[record]]
molecule = "Nc1ncnc2c1nc(NN=Cc1ccccc1)n2C1OC(CO)C(O)C1O (stereo not shown)"
test_target = "FNO from M. smithii (Methanobrevibacter smithii, UniProt A5UJ76)"
unit_tag = "nM"
assay_value = 6800

[[record]]
molecule = "COc1ccc(-c2coc3cc(O[C@@H]4O[C@H](CO)[C@@H](O)[C@H](O)[C@H]4O)ccc3c2=O)cc1"
test_target = "FNO from M. smithii (Methanobrevibacter smithii, UniProt A5UJ76)"
unit_tag = "nM"
assay_value = 240

[[record]]
molecule = "COc1cc(OC)c2c(C)c(CC(=O)NCC(=O)NCC(=O)O)c(=O)oc2c1"
test_target = "FNO from M. smithii (Methanobrevibacter smithii, UniProt A5UJ76)"
unit_tag = "nM"
assay_value = 1650

[[record]]
molecule = "CC(=O)OC[C@H]1O[C@@H](OC(C)=O)[C@H](OC(C)=O)[C@@H](OC(C)=O)[C@@H]1OC(C)=O [β-D-glucose pentaacetate]"
test_target = "FNO from M. smithii (Methanobrevibacter smithii, UniProt A5UJ76)"
unit_tag = "nM"
assay_value = 4850

[[record]]
molecule = "Cc1cc(O)c2c(c1)C(=O)c1cc(O[C@@H]3O[C@@H](C)[C@H](O)[C@@H](O)[C@H]3O)cc(O)c1C2=O"
test_target = "FNO from M. smithii (Methanobrevibacter smithii, UniProt A5UJ76)"
unit_tag = "nM"
assay_value = 130


// next item, Kd requested
Which Kd is reported with FNO from M. smithii (Methanobrevibacter smithii, UniProt A5UJ76) for this entry: O=c1c2cc(O)c(O)cc2oc2cc(O)c([C@@H]3O[C@H](CO)[C@@H](O)[C@H](O)[C@H]3O)c(O)c12 ?
400

---

- TEST TARGET: FNO from M. smithii (Methanobrevibacter smithii, UniProt A5UJ76)
- MEASUREMENT NOTES: Fluorometric FNO activity inhibition assay (F420 reduction with NADPH)
- Assay type: biochemical
- EXPERIMENTAL CONTEXT: 0.5 mM NADPH, 15 min preincubation, pH 6.0, 37 °C; read-out: Ki
OUTCOME MEASURE: pKi
Answers are plain numbers, as −log10 of the molar value.

[[record]]
molecule = "COc1ccc(-c2coc3cc(O[C@@H]4O[C@H](CO)[C@@H](O)[C@H](O)[C@H]4O)ccc3c2=O)cc1 [Ononin]"
assay_value = 6.69

[[record]]
molecule = "O=c1c2cc(O)c(O)cc2oc2cc(O)c([C@@H]3O[C@H](CO)[C@@H](O)[C@H](O)[C@H]3O)c(O)c12 [Mangiferin]"
assay_value = 6.19

[[record]]
molecule = "CC(=O)OC[C@H]1O[C@@H](OC(C)=O)[C@H](OC(C)=O)[C@@H](OC(C)=O)[C@@H]1OC(C)=O [β-D-glucose pentaacetate]"
assay_value = 5.40


Find the measured pKi: item Cc1cc(O)c2c(c1)C(=O)c1cc(O[C@@H]3O[C@@H](C)[C@H](O)[C@@H](O)[C@H]3O)cc(O)c1C2=O [Frangulin A] , target or system FNO from M. smithii (Methanobrevibacter smithii, UniProt A5UJ76).
7.31

---

- TEST TARGET: FNO from M. smithii (Methanobrevibacter smithii, UniProt A5UJ76)
- MEASUREMENT NOTES: Fluorometric FNO activity inhibition assay (F420 reduction with NADPH)
- Type: biochemical
OUTCOME MEASURE: pKi
Give bare numbers, as −log10 of the molar value.

Consider the molecule O=C(O)[C@H]1O[C@@H](Oc2cc3oc(-c4ccccc4)cc(=O)c3c(O)c2O)[C@H](O)[C@@H](O)[C@@H]1O [Baicalin] and give its measured pKi.
7.35

---

- TEST TARGET: FNO from M. smithii (Methanobrevibacter smithii)
- MEASUREMENT NOTES: SPR optical biosensor binding to immobilized FNO
- EXPERIMENTAL CONTEXT: PBS pH 7.4; read-out: kdiss
OUTCOME MEASURE: koff (s⁻¹)
Give bare numbers, in s⁻¹.

# count of solved cases: 4
[[record]]
compound = "O=C(O)[C@H]1O[C@@H](Oc2cc3oc(-c4ccccc4)cc(=O)c3c(O)c2O)[C@H](O)[C@@H](O)[C@@H]1O"
test_target = "FNO from M. smithii (Methanobrevibacter smithii)"
unit_tag = "s⁻¹"
assay_value = 0.00025

[[record]]
compound = "COc1ccc(-c2coc3cc(O[C@@H]4O[C@H](CO)[C@@H](O)[C@H](O)[C@H]4O)ccc3c2=O)cc1"
test_target = "FNO from M. smithii (Methanobrevibacter smithii)"
unit_tag = "s⁻¹"
assay_value = 0.0072

[[record]]
compound = "O=c1c2cc(O)c(O)cc2oc2cc(O)c([C@@H]3O[C@H](CO)[C@@H](O)[C@H](O)[C@H]3O)c(O)c12"
test_target = "FNO from M. smithii (Methanobrevibacter smithii)"
unit_tag = "s⁻¹"
assay_value = 0.002

[[record]]
compound = "Cc1cc(O)c2c(c1)C(=O)c1cc(O[C@@H]3O[C@@H](C)[C@H](O)[C@@H](O)[C@H]3O)cc(O)c1C2=O"
test_target = "FNO from M. smithii (Methanobrevibacter smithii)"
unit_tag = "s⁻¹"
assay_value = 0.0045


# ---- query compound ----
If you can, please state the reported koff value of CC(=O)OC[C@H]1O[C@@H](OC(C)=O)[C@H](OC(C)=O)[C@@H](OC(C)=O)[C@@H]1OC(C)=O [β-D-glucose pentaacetate] .
0.013
